Examples of compounds with documented MIC90 follow.
tested on: Finegoldia magna; test: Antibacterial activity against Finegoldia magna by CLSI M11-A6 agar dilution method; type: functional

{"columns": ["compound", "op", "MIC90 [µg/mL]"],
 "data": [
  ["CN[C@H](CC(C)C)C(=O)N[C@H]1C(=O)N[C@@H](CC(N)=O)C(=O)N[C@H]2C(=O)N[C@H]3C(=O)N[C@H](C(=O)N[C@H](C(=O)O)c4cc(O)cc(O)c4-c4cc3ccc4O)[C@H](O)c3ccc(c(Cl)c3)Oc3cc2cc(c3O[C@@H]2O[C@H](CO)[C@@H](O)[C@H](O)[C@H]2O[C@H]2C[C@](C)(N)[C@H](O)[C@H](C)O2)Oc2ccc(cc2Cl)[C@H]1O [VANCOMYCIN]", "=", 1],
  ["CC(=O)NC[C@H]1CN(c2ccc(N3CCOCC3)c(F)c2)C(=O)O1 [LINEZOLID]", "=", 2],
  ["CCCCCCCCCC(=O)N[C@@H](Cc1c[nH]c2ccccc12)C(=O)N[C@H](CC(N)=O)C(=O)N[C@@H](CC(=O)O)C(=O)N[C@@H]1C(=O)NCC(=O)N[C@@H](CCCN)C(=O)N[C@@H](CC(=O)O)C(=O)N[C@H](C)C(=O)N[C@@H](CC(=O)O)C(=O)NCC(=O)N[C@H](CO)C(=O)N[C@@H]([C@H](C)CC(=O)O)C(=O)N[C@@H](CC(=O)c2ccccc2N)C(=O)O[C@@H]1C", "=", 4],
  ["CCC[C@@H]1C[C@@H](C(=O)N[C@@H]([C@H]2O[C@H](SC)[C@H](O)[C@@H](O)[C@H]2O)[C@H](C)Cl)N(C)C1 [CLINDAMYCIN]", ">", 128],
  ["CCCCCCCCCCNCCN[C@@]1(C)C[C@H](O[C@H]2[C@H](Oc3c4cc5cc3Oc3ccc(cc3Cl)[C@@H](O)[C@@H](NC(=O)[C@@H](CC(C)C)NC)C(=O)N[C@@H](CC(N)=O)C(=O)N[C@H]5C(=O)N[C@H]3C(=O)N[C@H](C(=O)N[C@H](C(=O)O)c5cc(O)c(CNCP(=O)(O)O)c(O)c5-c5cc3ccc5O)[C@H](O)c3ccc(c(Cl)c3)O4)O[C@H](CO)[C@@H](O)[C@@H]2O)O[C@@H](C)[C@H]1O [TELAVANCIN]", "=", 0.25]
]}

###

system: Prevotella intermedia; experiment: Antibacterial activity against Prevotella intermedia by CLSI M11-A6 agar dilution method; assay type: functional

{"columns": ["smiles-record", "MIC90"],
 "data": [
  ["CN[C@H](CC(C)C)C(=O)N[C@H]1C(=O)N[C@@H](CC(N)=O)C(=O)N[C@H]2C(=O)N[C@H]3C(=O)N[C@H](C(=O)N[C@H](C(=O)O)c4cc(O)cc(O)c4-c4cc3ccc4O)[C@H](O)c3ccc(c(Cl)c3)Oc3cc2cc(c3O[C@@H]2O[C@H](CO)[C@@H](O)[C@H](O)[C@H]2O[C@H]2C[C@](C)(N)[C@H](O)[C@H](C)O2)Oc2ccc(cc2Cl)[C@H]1O", "> 128 µg/mL"],
  ["CC(=O)NC[C@H]1CN(c2ccc(N3CCOCC3)c(F)c2)C(=O)O1", "2 µg/mL"],
  ["CCCCCCCCCC(=O)N[C@@H](Cc1c[nH]c2ccccc12)C(=O)N[C@H](CC(N)=O)C(=O)N[C@@H](CC(=O)O)C(=O)N[C@@H]1C(=O)NCC(=O)N[C@@H](CCCN)C(=O)N[C@@H](CC(=O)O)C(=O)N[C@H](C)C(=O)N[C@@H](CC(=O)O)C(=O)NCC(=O)N[C@H](CO)C(=O)N[C@@H]([C@H](C)CC(=O)O)C(=O)N[C@@H](CC(=O)c2ccccc2N)C(=O)O[C@@H]1C", "> 128 µg/mL"],
  ["CCC[C@@H]1C[C@@H](C(=O)N[C@@H]([C@H]2O[C@H](SC)[C@H](O)[C@@H](O)[C@H]2O)[C@H](C)Cl)N(C)C1", "≤ 0.12 µg/mL"],
  ["Cc1ncc([N+](=O)[O-])n1CCO", "1 µg/mL"],
  ["CCCCCCCCCCNCCN[C@@]1(C)C[C@H](O[C@H]2[C@H](Oc3c4cc5cc3Oc3ccc(cc3Cl)[C@@H](O)[C@@H](NC(=O)[C@@H](CC(C)C)NC)C(=O)N[C@@H](CC(N)=O)C(=O)N[C@H]5C(=O)N[C@H]3C(=O)N[C@H](C(=O)N[C@H](C(=O)O)c5cc(O)c(CNCP(=O)(O)O)c(O)c5-c5cc3ccc5O)[C@H](O)c3ccc(c(Cl)c3)O4)O[C@H](CO)[C@@H](O)[C@@H]2O)O[C@@H](C)[C@H]1O", "64 µg/mL"]
]}

###

system: Ruminococcus albus; test: Antibacterial activity against Ruminococcus albus by CLSI M11-A6 agar dilution method; assay type: functional; conditions: Hominimerdicola alba
Examples of compounds with documented MIC90 follow.

{"columns": ["smiles-record", "tested-on", "MIC90 / µg/mL"],
 "data": [
  ["CCC[C@@H]1C[C@@H](C(=O)N[C@@H]([C@H]2O[C@H](SC)[C@H](O)[C@@H](O)[C@H]2O)[C@H](C)Cl)N(C)C1", "Ruminococcus albus", 2],
  ["CC(=O)NC[C@H]1CN(c2ccc(N3CCOCC3)c(F)c2)C(=O)O1", "Ruminococcus albus", 4],
  ["Cc1ncc([N+](=O)[O-])n1CCO", "Ruminococcus albus", 0.25],
  ["CCCCCCCCCC(=O)N[C@@H](Cc1c[nH]c2ccccc12)C(=O)N[C@H](CC(N)=O)C(=O)N[C@@H](CC(=O)O)C(=O)N[C@@H]1C(=O)NCC(=O)N[C@@H](CCCN)C(=O)N[C@@H](CC(=O)O)C(=O)N[C@H](C)C(=O)N[C@@H](CC(=O)O)C(=O)NCC(=O)N[C@H](CO)C(=O)N[C@@H]([C@H](C)CC(=O)O)C(=O)N[C@@H](CC(=O)c2ccccc2N)C(=O)O[C@@H]1C", "Ruminococcus albus", 2]
]}

###

Examples of molecules with documented MIC90 follow.
test system: Ruminococcus flavefaciens; assay: Antibacterial activity against Ruminococcus flavefaciens by CLSI M11-A6 agar dilution method; type: functional

{"columns": ["molecule", "unit-name", "op", "MIC90"],
 "data": [
  ["CC(=O)NC[C@H]1CN(c2ccc(N3CCOCC3)c(F)c2)C(=O)O1 [LINEZOLID]", "µg/mL", "=", 4],
  ["CCCCCCCCCCNCCN[C@@]1(C)C[C@H](O[C@H]2[C@H](Oc3c4cc5cc3Oc3ccc(cc3Cl)[C@@H](O)[C@@H](NC(=O)[C@@H](CC(C)C)NC)C(=O)N[C@@H](CC(N)=O)C(=O)N[C@H]5C(=O)N[C@H]3C(=O)N[C@H](C(=O)N[C@H](C(=O)O)c5cc(O)c(CNCP(=O)(O)O)c(O)c5-c5cc3ccc5O)[C@H](O)c3ccc(c(Cl)c3)O4)O[C@H](CO)[C@@H](O)[C@@H]2O)O[C@@H](C)[C@H]1O [TELAVANCIN]", "µg/mL", "≤", 0.12],
  ["CCCCCCCCCC(=O)N[C@@H](Cc1c[nH]c2ccccc12)C(=O)N[C@H](CC(N)=O)C(=O)N[C@@H](CC(=O)O)C(=O)N[C@@H]1C(=O)NCC(=O)N[C@@H](CCCN)C(=O)N[C@@H](CC(=O)O)C(=O)N[C@H](C)C(=O)N[C@@H](CC(=O)O)C(=O)NCC(=O)N[C@H](CO)C(=O)N[C@@H]([C@H](C)CC(=O)O)C(=O)N[C@@H](CC(=O)c2ccccc2N)C(=O)O[C@@H]1C", "µg/mL", "=", 2],
  ["CN[C@H](CC(C)C)C(=O)N[C@H]1C(=O)N[C@@H](CC(N)=O)C(=O)N[C@H]2C(=O)N[C@H]3C(=O)N[C@H](C(=O)N[C@H](C(=O)O)c4cc(O)cc(O)c4-c4cc3ccc4O)[C@H](O)c3ccc(c(Cl)c3)Oc3cc2cc(c3O[C@@H]2O[C@H](CO)[C@@H](O)[C@H](O)[C@H]2O[C@H]2C[C@](C)(N)[C@H](O)[C@H](C)O2)Oc2ccc(cc2Cl)[C@H]1O [VANCOMYCIN]", "µg/mL", "=", 1],
  ["Cc1ncc([N+](=O)[O-])n1CCO [METRONIDAZOLE]", "µg/mL", "=", 0.25],
  ["CCC[C@@H]1C[C@@H](C(=O)N[C@@H]([C@H]2O[C@H](SC)[C@H](O)[C@@H](O)[C@H]2O)[C@H](C)Cl)N(C)C1 [CLINDAMYCIN]", "µg/mL", "=", 2]
]}

###

tested on: Ruminococcus flavefaciens; assay: Antibacterial activity against Ruminococcus flavefaciens by CLSI M11-A6 agar dilution method; format: functional
quantity: MIC50 (µg/mL)

{"columns": ["compound", "quantity", "unit-name", "op", "result-number"],
 "data": [
  ["CCCCCCCCCC(=O)N[C@@H](Cc1c[nH]c2ccccc12)C(=O)N[C@H](CC(N)=O)C(=O)N[C@@H](CC(=O)O)C(=O)N[C@@H]1C(=O)NCC(=O)N[C@@H](CCCN)C(=O)N[C@@H](CC(=O)O)C(=O)N[C@H](C)C(=O)N[C@@H](CC(=O)O)C(=O)NCC(=O)N[C@H](CO)C(=O)N[C@@H]([C@H](C)CC(=O)O)C(=O)N[C@@H](CC(=O)c2ccccc2N)C(=O)O[C@@H]1C", "MIC50", "µg/mL", "=", 1],
  ["Cc1ncc([N+](=O)[O-])n1CCO [METRONIDAZOLE]", "MIC50", "µg/mL", "≤", 0.12],
  ["CC(=O)NC[C@H]1CN(c2ccc(N3CCOCC3)c(F)c2)C(=O)O1 [LINEZOLID]", "MIC50", "µg/mL", "=", 2],
  ["CCCCCCCCCCNCCN[C@@]1(C)C[C@H](O[C@H]2[C@H](Oc3c4cc5cc3Oc3ccc(cc3Cl)[C@@H](O)[C@@H](NC(=O)[C@@H](CC(C)C)NC)C(=O)N[C@@H](CC(N)=O)C(=O)N[C@H]5C(=O)N[C@H]3C(=O)N[C@H](C(=O)N[C@H](C(=O)O)c5cc(O)c(CNCP(=O)(O)O)c(O)c5-c5cc3ccc5O)[C@H](O)c3ccc(c(Cl)c3)O4)O[C@H](CO)[C@@H](O)[C@@H]2O)O[C@@H](C)[C@H]1O [TELAVANCIN]", "MIC50", "µg/mL", "≤", 0.12],
  ["CCC[C@@H]1C[C@@H](C(=O)N[C@@H]([C@H]2O[C@H](SC)[C@H](O)[C@@H](O)[C@H]2O)[C@H](C)Cl)N(C)C1 [CLINDAMYCIN]", "MIC50", "µg/mL", "≤", 0.12],
  ["CN[C@H](CC(C)C)C(=O)N[C@H]1C(=O)N[C@@H](CC(N)=O)C(=O)N[C@H]2C(=O)N[C@H]3C(=O)N[C@H](C(=O)N[C@H](C(=O)O)c4cc(O)cc(O)c4-c4cc3ccc4O)[C@H](O)c3ccc(c(Cl)c3)Oc3cc2cc(c3O[C@@H]2O[C@H](CO)[C@@H](O)[C@H](O)[C@H]2O[C@H]2C[C@](C)(N)[C@H](O)[C@H](C)O2)Oc2ccc(cc2Cl)[C@H]1O [VANCOMYCIN]", "MIC50", "µg/mL", "=", 0.5]
]}

Data credit: ChEMBL document CHEMBL1671662
